Assay: Half life in BALB/c mouse at 2.5 mg/kg, iv measured upto 24 hrs by HPLC analysis
Assay type: ADME, organism-based
Settings: in vivo
Quick list: half-life per entry.
# output: bare number, implied unit h

CC(c1cc(F)cc(F)c1)N1CC2(CCN(c3nc(=O)c4cc(C(F)(F)F)cc([N+](=O)[O-])c4s3)CC2)C1 (stereo unspecified) ... 3.25
O=c1nc(N2CCN(CC3CCCCC3)CC2)sc2c([N+](=O)[O-])cc(C(F)(F)F)cc12 [MACOZINONE] ... 5.14
CC(c1ccc(Cl)c(F)c1)N1CC2(CCN(c3nc(=O)c4cc(C(F)(F)F)cc([N+](=O)[O-])c4s3)CC2)C1 (stereo unspecified) ... 7.5
CC(c1cc(F)c(F)c(F)c1)N1CC2(CCN(c3nc(=O)c4cc(C(F)(F)F)cc([N+](=O)[O-])c4s3)CC2)C1 (stereo unspecified) ... 1.86
CC(c1ccc(OC(F)(F)F)cc1)N1CC2(CCN(c3nc(=O)c4cc(C(F)(F)F)cc([N+](=O)[O-])c4s3)CC2)C1 (stereo unspecified) ... 8.51

Shifting focus to the compound that follows.
Answer with the recorded half-life for the compound listed here: CC(c1ccc(C(F)(F)F)cc1)N1CC2(CCN(c3nc(=O)c4cc(C(F)(F)F)cc([N+](=O)[O-])c4s3)CC2)C1 (stereo unspecified)
9.29

###

# maps each entry to its half-life
Test: Half life in BALB/c mouse at 12.5 mg/kg, po measured upto 24 hrs by HPLC analysis
Format: ADME, organism-based
Conditions: in vivo
Show the value, then the unit it is measured in.

Note half-life for the compound shown: CC(c1ccc(OC(F)(F)F)cc1)N1CC2(CCN(c3nc(=O)c4cc(C(F)(F)F)cc([N+](=O)[O-])c4s3)CC2)C1 (stereo unspecified)
6 h

Dear colleague, please send me the reported half-life for CC(c1cc(F)cc(F)c1)N1CC2(CCN(c3nc(=O)c4cc(C(F)(F)F)cc([N+](=O)[O-])c4s3)CC2)C1 (stereo unspecified) when you can.
3.02 h

Dear colleague, please send me the reported half-life for CC(c1ccc(Cl)c(F)c1)N1CC2(CCN(c3nc(=O)c4cc(C(F)(F)F)cc([N+](=O)[O-])c4s3)CC2)C1 (stereo unspecified) when you can.
10.1 h

Return value of half-life for input CC(c1cc(F)c(F)c(F)c1)N1CC2(CCN(c3nc(=O)c4cc(C(F)(F)F)cc([N+](=O)[O-])c4s3)CC2)C1 (stereo unspecified) , no commentary.
2.08 h

Determine from records and report half-life for O=c1nc(N2CCN(CC3CCCCC3)CC2)sc2c([N+](=O)[O-])cc(C(F)(F)F)cc12
5.07 h

Give half-life for the following compound: CC(c1ccc(C(F)(F)F)cc1)N1CC2(CCN(c3nc(=O)c4cc(C(F)(F)F)cc([N+](=O)[O-])c4s3)CC2)C1 (stereo unspecified)
6.69 h

###

Assay: Cmax in BALB/c mouse at 12.5 mg/kg, po measured upto 24 hrs by HPLC analysis
Format: ADME, organism-based
Parameters: route oral, dose 12.5 mg/kg, time <=24
Details: in vivo
Kindly return T if reported Cmax is no lower than 300 ng/mL; return F if it is lower.

A selection of reference data follows.
CC(c1ccc(Cl)c(F)c1)N1CC2(CCN(c3nc(=O)c4cc(C(F)(F)F)cc([N+](=O)[O-])c4s3)CC2)C1 (stereo unspecified) ... T
O=c1nc(N2CCN(CC3CCCCC3)CC2)sc2c([N+](=O)[O-])cc(C(F)(F)F)cc12 [MACOZINONE] ... T
CC(c1ccc(OC(F)(F)F)cc1)N1CC2(CCN(c3nc(=O)c4cc(C(F)(F)F)cc([N+](=O)[O-])c4s3)CC2)C1 (stereo unspecified) ... T

Item CC(c1ccc(C(F)(F)F)cc1)N1CC2(CCN(c3nc(=O)c4cc(C(F)(F)F)cc([N+](=O)[O-])c4s3)CC2)C1 (stereo unspecified) with Cmax of 300 ng/mL or above?
T

Reported Cmax at or above 300 ng/mL? CC(c1cc(F)cc(F)c1)N1CC2(CCN(c3nc(=O)c4cc(C(F)(F)F)cc([N+](=O)[O-])c4s3)CC2)C1 (stereo unspecified)
F

# check: Cmax of CC(c1cc(F)c(F)c(F)c1)N1CC2(CCN(c3nc(=O)c4cc(C(F)(F)F)cc([N+](=O)[O-])c4s3)CC2)C1 (stereo unspecified) is greater than or equal to 300 ng/mL
F
